- TARGET OR SYSTEM: human KDR (human, UniProt P35968 20-1356)
- Sequence (P35968 20-1356): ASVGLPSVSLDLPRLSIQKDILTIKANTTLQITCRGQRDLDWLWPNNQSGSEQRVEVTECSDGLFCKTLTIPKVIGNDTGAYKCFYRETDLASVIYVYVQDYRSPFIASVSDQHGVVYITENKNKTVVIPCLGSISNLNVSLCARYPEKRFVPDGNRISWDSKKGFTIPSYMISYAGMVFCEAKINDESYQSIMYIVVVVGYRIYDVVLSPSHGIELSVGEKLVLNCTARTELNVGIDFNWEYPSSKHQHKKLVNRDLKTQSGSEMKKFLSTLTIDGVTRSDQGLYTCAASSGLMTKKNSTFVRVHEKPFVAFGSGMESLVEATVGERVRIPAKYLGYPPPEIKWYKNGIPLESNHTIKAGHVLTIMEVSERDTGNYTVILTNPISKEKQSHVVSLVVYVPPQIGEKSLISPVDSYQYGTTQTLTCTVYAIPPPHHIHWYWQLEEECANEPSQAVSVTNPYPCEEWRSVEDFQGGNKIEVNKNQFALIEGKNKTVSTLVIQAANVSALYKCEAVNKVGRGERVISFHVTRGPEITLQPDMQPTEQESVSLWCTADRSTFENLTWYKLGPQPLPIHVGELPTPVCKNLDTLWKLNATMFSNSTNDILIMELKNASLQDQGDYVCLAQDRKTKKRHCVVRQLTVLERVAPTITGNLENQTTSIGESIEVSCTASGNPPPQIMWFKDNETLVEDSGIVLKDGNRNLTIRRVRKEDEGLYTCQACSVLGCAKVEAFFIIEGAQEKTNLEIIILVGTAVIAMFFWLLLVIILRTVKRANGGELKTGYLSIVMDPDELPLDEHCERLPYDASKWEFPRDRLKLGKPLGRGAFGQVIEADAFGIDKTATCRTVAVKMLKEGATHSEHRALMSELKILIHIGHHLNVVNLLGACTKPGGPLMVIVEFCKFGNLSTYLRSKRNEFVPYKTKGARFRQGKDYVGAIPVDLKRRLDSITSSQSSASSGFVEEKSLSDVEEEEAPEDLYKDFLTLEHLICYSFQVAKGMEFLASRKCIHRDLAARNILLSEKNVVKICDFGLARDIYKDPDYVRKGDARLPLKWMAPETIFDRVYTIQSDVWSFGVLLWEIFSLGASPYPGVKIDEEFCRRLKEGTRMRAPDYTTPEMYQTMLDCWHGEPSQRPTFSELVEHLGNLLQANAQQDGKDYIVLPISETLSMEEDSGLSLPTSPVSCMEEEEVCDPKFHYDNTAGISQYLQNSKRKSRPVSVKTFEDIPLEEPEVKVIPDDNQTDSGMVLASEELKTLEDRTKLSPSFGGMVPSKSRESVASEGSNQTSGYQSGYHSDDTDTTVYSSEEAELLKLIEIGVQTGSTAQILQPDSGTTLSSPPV
- TEST NAME: cell-based or functional assay
RECORDED ENDPOINT: KDR tyrosine phosphorylation in HUVEC, Maximum Inhibition at 100 nM (% Inhibition), N = 1 (%)

BINDER	VALUE UNIT	READING
31E11 (antibody, V domains shown, Fully human monoclonal antibody from a XenoMouse hybridoma (IgG2 or IgG4 strain), purified) VH: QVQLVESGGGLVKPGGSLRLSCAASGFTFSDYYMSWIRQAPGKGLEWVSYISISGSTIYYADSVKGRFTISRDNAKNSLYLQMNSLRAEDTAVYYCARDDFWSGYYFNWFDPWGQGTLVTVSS VL: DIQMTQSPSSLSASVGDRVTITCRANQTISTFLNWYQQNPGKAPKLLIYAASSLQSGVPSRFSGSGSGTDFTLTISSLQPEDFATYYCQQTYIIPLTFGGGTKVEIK	%	84
33C3 (antibody, V domains shown, Fully human monoclonal antibody from a XenoMouse hybridoma (IgG2 or IgG4 strain), purified) VH: QVQLVESGGGLVKPGESLRLSCAASGFTFSDYYMSWIRQAPGKGLEWVSYISHGGSTIYYADSVKGRFTISRDNAKNSLYLQMNSLRVEDTAVYFCARDDFWSGYYFNWFDPWGQGALVTVSS VL: DIQMTQYPLSLSASVGDRVTITCRASQSISSFLNWYHQKPGKAPKLLIYGTSSLQSGVPSRFSGSGSGTDFTLTISSLQPEDFATYYCQQTYSIPLTFGGGTNVEIK	%	83
32F4 (antibody, V domains shown, Fully human monoclonal antibody from a XenoMouse hybridoma (IgG2 or IgG4 strain), purified) VH: QLQLQESGPGLVKPSGTLSLSCTVSGGSISSRSDYWGWIRQPPGKGLEWIGTIYYSGNTFYNPSLKSRVTISVDTSKKQFSLKLSSVTAADTAVYYCARQQLVLYYFDYWGQGTLVTVSS VL: EIVLTQSPGTLSLSPGERATLSCRTSQSVSSSYLAWYQQKPGQAPRLLIYGASSRATGVPDRFSGSGSGTDFSLTISRLEPEDFAVYYCQQYGSSPPLTFGGGTKVEIK	%	71
